Provenance of the data: patent US20100298141A1

Test system: morningglory
Assay: Test A pre-/postemergence greenhouse test
Assay type: in vivo, Ipomoea spp.
Conditions: Postemergence, 500 g ai/ha; 0 to 100 scale, 0 is no effect, 100 is complete control
Would you kindly list Morningglory plant response rating for each of these molecules?

Fill in: Morningglory plant response rating of Cc1cc[n+]([O-])c([S+]([O-])Cc2c(C(F)(F)F)nn(C)c2OC(C)C(F)(F)F)c1 (centres unmarked) is ___ 90

Follow-up entry: Cn1nc(C(F)(F)F)c(C[S+]([O-])c2ccc(F)c[n+]2[O-])c1Cl (centres unmarked) 90

Follow-up entry: "Cn1nc(C(F)(F)F)c(CS(=O)(=O)c2cc(C3CC3)cc[n+]2[O-])c1OCC(F)(F)F" 20

Follow-up entry: Cn1nc(C(F)(F)F)c(C[S+]([O-])c2ccc(F)c[n+]2[O-])c1OCC(F)(F)F (centres unmarked) 100

Follow-up entry: Cc1cc[n+]([O-])c([S+]([O-])Cc2c(C(F)(F)F)nn(C)c2Cl)c1 (racemic) 60

Follow-up entry: Cn1nc(C(F)(F)F)c(C(Cl)S(=O)(=O)c2cccc[n+]2[O-])c1OCC(F)(F)F (racemic) 30

Follow-up entry: Cn1nc(OC(F)F)c(C[S+]([O-])c2cccc[n+]2[O-])c1C(F)(F)F (centres unmarked) 80

Follow-up entry: Cn1nc(C(F)(F)F)c(C[S+]([O-])c2cc(Cl)cc[n+]2[O-])c1OC(F)F (centres unmarked) 70
